Each recorded value in this set is attributed to patent US9790217B2.

Measured log10 EC50 of individual entries
- Tested On: human CYP11B2 (Homo sapiens (Human))
- Sequence (P19099 25-503): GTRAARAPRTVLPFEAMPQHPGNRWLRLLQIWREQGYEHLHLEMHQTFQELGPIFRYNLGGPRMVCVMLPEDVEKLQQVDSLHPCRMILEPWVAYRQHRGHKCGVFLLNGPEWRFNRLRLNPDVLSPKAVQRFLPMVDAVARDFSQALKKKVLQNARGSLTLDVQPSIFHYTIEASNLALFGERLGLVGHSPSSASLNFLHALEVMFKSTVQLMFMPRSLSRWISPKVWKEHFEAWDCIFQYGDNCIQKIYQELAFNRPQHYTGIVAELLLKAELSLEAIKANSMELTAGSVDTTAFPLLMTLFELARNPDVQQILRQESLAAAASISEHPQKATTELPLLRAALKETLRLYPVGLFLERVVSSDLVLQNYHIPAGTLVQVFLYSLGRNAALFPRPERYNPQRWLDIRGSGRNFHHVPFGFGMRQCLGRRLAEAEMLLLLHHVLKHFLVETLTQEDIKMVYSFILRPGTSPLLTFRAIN
- Assay Info: G-402 cellular enzyme assay, human CYP11B2 (aldosterone release, HTRF)
- Measurement Context: G-402 cells expressing human CYP11B2; 1 μM Deoxycorticosterone
Measurement Label: log10 EC50 (log10 of the value in nM)

{"Molecule": "N#Cc1ccc(Oc2cn[nH]c2-c2cccc(OCc3ccccc3)c2)cc1", "log10 EC50": 1.23}
{"Molecule": "Fc1ccccc1-c1[nH]ncc1Oc1ccc(Cl)cc1", "log10 EC50": 0.90}
{"Molecule": "Cn1cc(COc2cccc(-c3[nH]ncc3Oc3ccc(C#N)cc3)c2)cn1", "log10 EC50": 0.98}
{"Molecule": "N#Cc1ccc(Oc2cn[nH]c2C2CCCN(C(=O)c3cccnc3)C2)c(F)c1 (racemic)", "log10 EC50": 3.10}
{"Molecule": "COc1ccccc1CCc1[nH]ncc1Oc1ccc(C#N)cc1", "log10 EC50": 1.73}
{"Molecule": "Clc1ccc(Oc2cn[nH]c2-c2ccccc2Cl)cn1", "log10 EC50": 2.05}
{"Molecule": "N#Cc1ccc(Oc2cn[nH]c2-c2cccc(COc3cccc(F)n3)c2)cc1", "log10 EC50": 1.23}
{"Molecule": "Cc1ncc(-c2[nH]ncc2Oc2ccc(C#N)cc2)s1", "log10 EC50": 1.84}
{"Molecule": "CC(=O)N1CCCC(c2[nH]ncc2Oc2ccc(C#N)cc2)C1 (racemic)", "log10 EC50": 2.57}
{"Molecule": "Fc1c(Cl)cccc1-c1[nH]ncc1Oc1ccc(Cl)cc1", "log10 EC50": 2.28}

====

- Tested On: human CYP11B1 (Homo sapiens (Human), UniProt P15538)
- Sequence (P15538 25-503): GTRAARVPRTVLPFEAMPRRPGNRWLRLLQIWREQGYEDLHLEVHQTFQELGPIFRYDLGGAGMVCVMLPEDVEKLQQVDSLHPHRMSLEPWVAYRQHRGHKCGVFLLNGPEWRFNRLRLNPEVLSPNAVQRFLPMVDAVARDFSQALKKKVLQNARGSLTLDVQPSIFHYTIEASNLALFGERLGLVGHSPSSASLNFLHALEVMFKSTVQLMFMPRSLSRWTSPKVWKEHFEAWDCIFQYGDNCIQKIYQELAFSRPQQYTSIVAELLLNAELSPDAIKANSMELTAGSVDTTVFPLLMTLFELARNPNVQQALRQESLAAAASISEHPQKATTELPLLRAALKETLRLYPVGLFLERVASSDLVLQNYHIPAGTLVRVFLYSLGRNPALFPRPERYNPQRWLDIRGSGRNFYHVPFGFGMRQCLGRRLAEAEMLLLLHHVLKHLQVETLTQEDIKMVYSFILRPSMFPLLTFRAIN
- Assay Info: G-402 cellular enzyme assay, human CYP11B1 (cortisol release, HTRF)
- Measurement Context: G-402 cells expressing human CYP11B1; 1 μM Deoxycortisol
Measurement Label: EC50 (nM)

{"Compound": "N#Cc1ccc(Oc2cn[nH]c2-c2cccc(COc3cccc(Cl)n3)c2)cc1", "Unit String": "nM", "Recorded Value": 411}
{"Compound": "N#Cc1ccc(Oc2cn[nH]c2-c2cccc(COc3cccc(F)n3)c2)cc1", "Unit String": "nM", "Recorded Value": 47.7}
{"Compound": "N#Cc1ccc(Oc2cn[nH]c2C2CCCN(C(=O)c3ccccn3)C2)cc1 (racemic)", "Unit String": "nM", "Recorded Value": 5910}
{"Compound": "Cn1nncc1COc1cccc(-c2[nH]ncc2Oc2ccc(C#N)cc2)c1", "Unit String": "nM", "Recorded Value": 198}
{"Compound": "Cc1ccc(Oc2cn[nH]c2-c2ccccc2Cl)cn1", "Unit String": "nM", "Recorded Value": 3390}
{"Compound": "CS(=O)(=O)c1ccc(-c2[nH]ncc2Oc2ccc(C(F)(F)F)cc2)cc1", "Unit String": "nM", "Recorded Value": 1970}
{"Compound": "N#Cc1ccc(Oc2cn[nH]c2-c2ccnc(Cl)c2)cc1", "Unit String": "nM", "Recorded Value": 10500}
{"Compound": "N#Cc1ccc(Oc2cn[nH]c2-c2ccccc2O)cc1", "Unit String": "nM", "Recorded Value": 10.7}
{"Compound": "N#Cc1ccc(Oc2cn[nH]c2-c2ccccc2Cn2ccc(=O)cc2)cc1", "Unit String": "nM", "Recorded Value": 2880}
{"Compound": "Fc1cc(Cl)ccc1Oc1cn[nH]c1-c1ccccc1Cl", "Unit String": "nM", "Recorded Value": 350}
{"Compound": "COc1ccccc1-c1[nH]ncc1Oc1ccc(Cl)cc1", "Unit String": "nM", "Recorded Value": 1.3}
{"Compound": "N#Cc1ccc(Oc2cn[nH]c2C2CCCN(C(=O)c3cccnc3)C2)c(F)c1 (racemic)", "Unit String": "nM", "Recorded Value": 9010}
